Reported exon inclusion enrichment index values follow for various variants
B1: mRNA-splicing (parent)
chain: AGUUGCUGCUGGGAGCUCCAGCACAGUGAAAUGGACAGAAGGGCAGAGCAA

variants of: B1; experiment: exon inclusion enrichment index; higher = more inclusion; WT1 exon 5 minigene, HEK293
readout-name: exon inclusion enrichment index

• G5A C6U U7A G8U C9A G42U G43A = 0.282
• G5C C6U U7G G8C C9U U10C = 1.54
• G21C C22U = 2.41
• G5U G8U C9U G11A G12C = 0.0306
• G5C C6U G8C C9U U10C G13A A14G = 2.03
• G5A C6A G8A U10C = 0.811
• U4A G5C C6A U7C G8A U10A = 0.0584
• G5C C6A U7C G8A U10A G43C C44A = 0.602
• C24A A25C = 0.728
• G5C C6A U7C G8A U10A A45U = 0.211
• G5C C6U G8C C9U U10C A23C = 1.9
• C6A U7A C9A U10A C16U U17G = 0.212
• G5A C6U U7A G8U C9A C19U A20U = 0.00982
• G5A C6A U7A C9A U10A = 0.214
• A14C G15U = 0.0261
• C6A U7C C9A U10C G42A G43U = 4.39
• C6A U7A C9A U10A G15C C16U = 0.63
• G5C C6U G8C C9U U10C A14U = 0.661
• G5U G8U C9U U17G = 0.13
• G5C C6A U7C G8A U10A G21C = 0.0715
• U3G U4A = 0.0184
• G5C C6U G8C C9U U10C G34U A35U = 0.377
• G5A U7C G8A U10C G28A A29U = 0.513
• C44U A45G = 0.0801
• C6A U7A C9A U10A G28A A29C = 0.433
• U4G C6A U7C C9A U10C = 2.45
• C6A U7A C9A U10A G42A = 1.81
• G5A C6G U7G C9A C36U A37G = 0.00557
• G5C C6A U7C G8A U10A G12A G13C = 0.0982
• G5A C6G U7G C9A G46U = 0.000617
• G5C C6G U7C U10C G15C = 3.44
• G5A U7C G8A U10C G43U C44U = 0.735
• G42A G43C = 2.4
• G5A C6U U7A G8U C9A G41A G42C = 0.172
• G5C C6A U7C G8A U10A C18G C19G = 0.186
• G5C C6U G8C C9U U10C A47U = 1.87
• C6U U7C = 0.178
• C6A U7C C9A U10C G15A C16A = 2.34
